Values compiled from patent US20260091020A1.

protocol summary: Plasma PK of ANEB-001 and THC, 30 mg or 10 mg oral Compound 1 with 21 mg THC (Example 4)
Type: in vivo, human
stated conditions: human, in vivo, 21 mg THC + 30 mg ANEB-001; 04H00M; read-out: THC in Plasma (concentration), Mean
property: concentration at 4 h
State the value with its unit after it.

Incoming: Given CCCCCc1cc(O)c2c(c1)OC(C)(C)[C@@H]1CCC(C)=C[C@@H]21 [THC, Δ9-tetrahydrocannabinol] , state its recorded concentration at 4 h.
Outgoing: 1.22 ng/mL

====

protocol summary: Plasma PK of ANEB-001 and THC, 30 mg or 10 mg oral Compound 1 with 21 mg THC (Example 4)
Type: in vivo, human
stated conditions: human, in vivo, 21 mg, 21 mg THC + Placebo; read-out: THC plasma Cmax, GeoMean
Description: Following the general methods of Example 2, the study design was adjusted such that groups received either (a) THC (21 mg)+placebo or (b) THC (21 mg)+Compound 1 (30 mg) (FIG. 14) or either (a) THC (21 mg)+placebo or (b) THC (21 mg)+Compound 1 (10 mg) (FIG. 15). […] All PK parameter calculations were based on actual sampling time. […] AUC was calculated using the log-linear trapezoidal rule. […]
property: Cmax (ng/mL)
The response must be a number in ng/mL with no trailing unit.

Incoming: Given CCCCCc1cc(O)c2c(c1)OC(C)(C)[C@@H]1CCC(C)=C[C@@H]21 [THC, Δ9-tetrahydrocannabinol] , state its recorded Cmax.
Outgoing: 5.53

====

protocol summary: Plasma PK of ANEB-001 and THC, 50 and 100 mg oral Compound 1 with THC (Example 2)
Type: in vivo, human
stated conditions: human, in vivo, 10 mg THC + 50 mg ANEB-001; 24 hrs; read-out: THC Concentration in Plasma, Median
Procedure: A phase 2 clinical study was conducted using the design outlined in FIG. 1. Briefly, 60 adult healthy volunteers ages 18-45 (20 per arm) were selected for a randomized, double blind placebo-controlled study. Volunteers were divided into three groups: (1) THC (Δ9-Tetrahydrocannabinol, 10.5 mg)+placebo; (2) THC (10.5 mg)+Compound 1 (50 mg); and (3) THC (10.5 mg)+Compound 1 (100 mg). […] Following the general methods of Example 1, pharmacodynamic properties were measured for Compound 1 (FIGS. 13A-13F).
property: concentration at 24 h (ng/mL)
The response must be a number in ng/mL with no trailing unit.

Incoming: Given CCCCCc1cc(O)c2c(c1)OC(C)(C)[C@@H]1CCC(C)=C[C@@H]21 [THC, Δ9-tetrahydrocannabinol] , state its recorded concentration at 24 h.
Outgoing: 0

====

protocol summary: Plasma PK of ANEB-001 and THC, 50 and 100 mg oral Compound 1 with THC (Example 2)
Format: in vivo, human
stated conditions: human, in vivo, 10 mg THC + 100 mg ANEB-001; 0.67 hrs; read-out: THC Concentration in Plasma, Median
property: concentration at 0.67 h (ng/mL)
The response must be a number in ng/mL with no trailing unit.

Incoming: Given CCCCCc1cc(O)c2c(c1)OC(C)(C)[C@@H]1CCC(C)=C[C@@H]21 [THC, Δ9-tetrahydrocannabinol] , state its recorded concentration at 0.67 h.
Outgoing: 2.41
